System: N27 rat dopaminergic neural cells
Test: MTT assay in N27 rat dopaminergic neural cells: inhibition of RSL3-induced cell death (ferroptosis)
Assay type: cell-based
Conditions: Rattus norvegicus, N27, 24 h, ferroptosis induced by 0.5 μM RSL3, 24 hours, viability by MTT
PARAMETER: log10 of IC50 (log10 of the value in nM)
Record value = log10 of IC50 given in nM.

Recorded log10 of IC50, per entry:
COMPOUND | SUBJECT OF TEST | log10 of IC50
CCCCC(O)c1nc2c(c(NC3CCCC3)n1)NCCC2 (centres unmarked) | N27 rat dopaminergic neural cells | 2.05
CC1(Nc2nc(-c3ccc(F)cc3)ccc2NC2CCC2)CCOC1 (centres unmarked) | N27 rat dopaminergic neural cells | 0.48
CC(C)(C)Nc1ccc(-c2ccncc2)nc1NC1CCCC1 | N27 rat dopaminergic neural cells | 0.70
CC1(Nc2nc(-c3ccccn3)ccc2NC2CCOC2)CCOC1 (centres unmarked) | N27 rat dopaminergic neural cells | 2.15
O=C(c1ccc(F)cc1)c1nc2c(c(NC3CCCC3)n1)NCCC2 | N27 rat dopaminergic neural cells | 2.09
CCOC(=O)c1cc2c(c(NC3CCCC3)c1)NC(C)(C)CC2 | N27 rat dopaminergic neural cells | 3.02

Prompt: Item `C1CNc2c(nc(C3CCCC3)nc2NC2CCCC2)C1` with N27 rat dopaminergic neural cells - log10 of IC50?
Response: 2.18

Prompt: Item `c1nc2c(c(NC3CCCC3)n1)NCCC2` with N27 rat dopaminergic neural cells - log10 of IC50?
Response: 2.81
